- protocol details: PK of the drug-drug interaction between l-THP and cocaine in cocaine users
- Assay type: in vivo, human
- condition: human, in vivo; cocaine users, n = 2, mean only; analyte l-THP; read-out: I-THP AUC 0-inf
readout type: AUC(0-inf) (ng·h/mL)
Enter your answer as a number in ng·h/mL; do not include the unit.

Entry COc1cc2c(cc1OC)[C@@H]1Cc3ccc(OC)c(OC)c3CN1CC2 [l-THP, levo-tetrahydropalmatine] has what AUC(0-inf)?
393
